Test: Plasma Stability (37° C.), nude mouse
Listing: Plasma Stability (37° C.) % Remaining (3-3.5 hours) nude mouse of selected molecules
Report the figure in % without appending any unit label.

(Q) Give the measured Plasma Stability (37° C.) % Remaining (3-3.5 hours) nude mouse of `COc1ccc2c(c1)c(/C=C1\Oc3cc(O)cc(O)c3C1=O)cn2CCCN(C)C` .
(A) 78

(Q) Fill in the blank: the reported Plasma Stability (37° C.) % Remaining (3-3.5 hours) nude mouse of `COc1ccc2c(c1)c(/C=C1\Oc3cc(OC(=O)N(C(C)C)C(C)C)cc(OC(=O)N(C(C)C)C(C)C)c3C1=O)cn2CCCN(C)C` is ____.
(A) 64

(Q) Which Plasma Stability (37° C.) % Remaining (3-3.5 hours) nude mouse value belongs to `CN(C)C(=O)Oc1cc(OC(=O)N(C)C)c2c(c1)O/C(=C\c1cn(C)c3cccc(-c4ccccc4)c13)C2=O` ?
(A) 80

(Q) GET /values?readout=Plasma Stability (37° C.) % Remaining (3-3.5 hours) nude mouse&item= `CN(C)C(=O)Oc1cc(OC(=O)N(C)C)c2c(c1)O/C(=C\c1cn(C)c3nccc(-c4ccccc4)c13)C2=O`
(A) 52

(Q) // query Plasma Stability (37° C.) % Remaining (3-3.5 hours) nude mouse value for entry `COc1ccc2c(c1)c(/C=C1\Oc3cc(OC(=O)OC(C)C)cc(OC(=O)OC(C)C)c3C1=O)cn2CCCN(C)C`
(A) 16

(Q) If you can, please state the reported Plasma Stability (37° C.) % Remaining (3-3.5 hours) nude mouse value of `CN(C)C(=O)Oc1cccc2c1C(=O)/C(=C/c1cn(C)c3nccc(N4CC5CCC(C4)O5)c13)O2` .
(A) 64

(Q) What value of Plasma Stability (37° C.) % Remaining (3-3.5 hours) nude mouse has been recorded for this entry: `COc1ccc2[nH]c(-c3ccccc3)c(/C=C3\Oc4cc(OC(=O)N(c5ccccc5)c5ccccc5)cc(OC(=O)N(c5ccccc5)c5ccccc5)c4C3=O)c2c1`
(A) 85

====

Biological target: UniProt:P42345
Experiment: mTOR Enzyme Assay (DELFIA, purified enzyme)
Assay type: biochemical
Parameters: FLAG
Conditions: read-out: mTOR Mean IC50
Items are presented alongside their recorded pIC50.
Schema: pIC50 number; meaning minus log10 of the concentration expressed in molar units.

molecular-string	pIC50
CN(C)C(=O)Oc1cccc2c1C(=O)/C(=C/c1cn(C)c3nccc(N4CC5CCC(C4)O5)c13)O2	7.51
COc1ccc2[nH]c(-c3ccccc3)c(/C=C3\Oc4cc(OP(=O)(O)c5ccccc5)ccc4C3=O)c2c1	5.66
CCOC(=O)CNC(=O)Oc1ccc2c(c1)O/C(=C\c1cn(CCCN(C)C)c3ccc(OC)cc13)C2=O	6.21
COc1ccc2[nH]c(-c3ccccc3)c(/C=C3\Oc4cc(OP(=O)(O)O)ccc4C3=O)c2c1	5.61
COc1ccc2[nH]c(-c3ccccc3)c(/C=C3\Oc4cc(OP(=O)(O)O)cc(OP(=O)(O)O)c4C3=O)c2c1	6.01
COc1ccc2c(c1)c(/C=C1\Oc3cc(O)cc(O)c3C1=O)c(C)n2CCN1CCN(C)CC1	7.65

(Q) What pIC50 value was documented for this compound, `COc1ccc2c(c1)c(/C=C1\Oc3cc(OC(=O)N4CCN(Cc5ccccc5)CC4)cc(OC(=O)N4CCN(Cc5ccccc5)CC4)c3C1=O)cn2CCCN(C)C` ?
(A) 5.78

(Q) What pIC50 value was documented for this compound, `COc1ccc2[nH]c(-c3ccccc3)c(C=C3Oc4cc(O)cc(O)c4C3=O)c2c1` ?
(A) 7.10

====

Test: Buffer Stability (37° C.)
Conditions: pH 6.6
property-name: Buffer Stability (37° C.) % Remaining (at 16-23 hours) pH 6.6 (%)
Only the number, expressed in %, is required.

molecular-string	result
COc1ccc2c(c1)c(/C=C1\Oc3cc(O)cc(O)c3C1=O)c(C)n2CCN1CCN(C)CC1	63

API: the following record is the query input.
(Q) For the compound shown here, `COc1ccc2c(c1)c(/C=C1\Oc3cc(OC(=O)N(C)C)cc(OC(=O)N(C)C)c3C1=O)cn2CCCN(C)C` , give the reported Buffer Stability (37° C.) % Remaining (at 16-23 hours) pH 6.6.
(A) 100

====

Test: Microsome Stability (15 min), nude mouse
Assay type: in vitro ADME
Details: microsomes, Phase I (NADPH), read-out: Microsome Stability (15 min) T ½ Phase I nude mouse
property-name: half-life

Below, 4 compounds whose answers are already recorded.
molecular-string	half-life
COc1ccc2c(c1)c(/C=C1\Oc3cc(OC(=O)N(C)C)cc(OC(=O)N(C)C)c3C1=O)c(C)n2CCN1CCN(C)CC1	23 min
COc1ccc2c(c1)c(/C=C1\Oc3cc(OC(=O)N(C)c4ccccc4)cc(OC(=O)N(C)c4ccccc4)c3C1=O)cn2CCCN(C)C	> 30 min
COc1ccc2[nH]c(-c3ccccc3)c(/C=C3\Oc4cc(OC(=O)N(C)C)ccc4C3=O)c2c1	> 30 min
COc1ccc2[nH]c(-c3ccccc3)c(/C=C3\Oc4cc(OC(=O)N(C)C)cc(OC(=O)N(C)C)c4C3=O)c2c1	> 30 min

Please look at the following compound next.
(Q) Which half-life is reported for this compound? `COc1ccc2[nH]c(-c3ccccc3)c(/C=C3\Oc4cc(OC(=O)N(C(C)C)C(C)C)cc(OC(=O)N(C(C)C)C(C)C)c4C3=O)c2c1`
(A) > 30 min

====

Experiment: Plasma Stability (37° C.), rat
# Plasma Stability (37° C.) % Remaining (3-3.5 hours) rat per record follows
// units = %; emit number, no label

Known Plasma Stability (37° C.) % Remaining (3-3.5 hours) rat results, listed for orientation:
molecular-string	unit-info	result
COC(=O)Oc1cc(OC(=O)OC)c2c(c1)O/C(=C\c1c(-c3ccccc3)[nH]c3ccc(OC)cc13)C2=O	%	0
COc1ccc2[nH]c(-c3ccccc3)c(/C=C3\Oc4cc(O)ccc4C3=O)c2c1	%	111
COc1ccc2c(c1)c(/C=C1\Oc3cc(OC(=O)N(c4ccccc4)c4ccccc4)cc(OC(=O)N(c4ccccc4)c4ccccc4)c3C1=O)cn2CCCN(C)C	%	107

Query compound follows.
(Q) Requested read-out: Plasma Stability (37° C.) % Remaining (3-3.5 hours) rat. Entry: `COc1ccc2[nH]c(-c3ccccc3)c(/C=C3\Oc4cc(OC(=O)N(C)C)ccc4C3=O)c2c1`
(A) 0

====

Experiment: Buffer Stability (37° C.)
Conditions: pH 4.5
property-name: Buffer Stability (37° C.) % Remaining (at 16-23 hours) pH 4.5

molecular-string	result
COc1ccc2[nH]c(-c3ccccc3)c(/C=C3\Oc4cc(OC(=O)Oc5ccccc5)ccc4C3=O)c2c1	74%

(Q) Need Buffer Stability (37° C.) % Remaining (at 16-23 hours) pH 4.5 of `COc1ccc2c(c1)c(/C=C1\Oc3cc(OC(=O)N(C)c4ccccc4)ccc3C1=O)c(C)n2CCN1CCN(C)CC1` , thanks.
(A) 99%

(Q) So what does the record say about Buffer Stability (37° C.) % Remaining (at 16-23 hours) pH 4.5 for `COc1ccc2c(c1)c(/C=C1\Oc3cc(OC(=O)N(C)C)cc(OC(=O)N(C)C)c3C1=O)c(C)n2CCN1CCN(C)CC1` ?
(A) 100%

(Q) Name the reported Buffer Stability (37° C.) % Remaining (at 16-23 hours) pH 4.5 value associated with the compound `COc1ccc2c(c1)c(/C=C1\Oc3cc(OC(=O)N(C)C)cc(OC(=O)N(C)C)c3C1=O)cn2CCCN(C)C`
(A) 100%

====

Each entry below lists one item and its recorded pIC50 value.
Target: PI3K alpha (Homo sapiens, UniProt P42336)
Sequence (P42336 whole entry, species assumed): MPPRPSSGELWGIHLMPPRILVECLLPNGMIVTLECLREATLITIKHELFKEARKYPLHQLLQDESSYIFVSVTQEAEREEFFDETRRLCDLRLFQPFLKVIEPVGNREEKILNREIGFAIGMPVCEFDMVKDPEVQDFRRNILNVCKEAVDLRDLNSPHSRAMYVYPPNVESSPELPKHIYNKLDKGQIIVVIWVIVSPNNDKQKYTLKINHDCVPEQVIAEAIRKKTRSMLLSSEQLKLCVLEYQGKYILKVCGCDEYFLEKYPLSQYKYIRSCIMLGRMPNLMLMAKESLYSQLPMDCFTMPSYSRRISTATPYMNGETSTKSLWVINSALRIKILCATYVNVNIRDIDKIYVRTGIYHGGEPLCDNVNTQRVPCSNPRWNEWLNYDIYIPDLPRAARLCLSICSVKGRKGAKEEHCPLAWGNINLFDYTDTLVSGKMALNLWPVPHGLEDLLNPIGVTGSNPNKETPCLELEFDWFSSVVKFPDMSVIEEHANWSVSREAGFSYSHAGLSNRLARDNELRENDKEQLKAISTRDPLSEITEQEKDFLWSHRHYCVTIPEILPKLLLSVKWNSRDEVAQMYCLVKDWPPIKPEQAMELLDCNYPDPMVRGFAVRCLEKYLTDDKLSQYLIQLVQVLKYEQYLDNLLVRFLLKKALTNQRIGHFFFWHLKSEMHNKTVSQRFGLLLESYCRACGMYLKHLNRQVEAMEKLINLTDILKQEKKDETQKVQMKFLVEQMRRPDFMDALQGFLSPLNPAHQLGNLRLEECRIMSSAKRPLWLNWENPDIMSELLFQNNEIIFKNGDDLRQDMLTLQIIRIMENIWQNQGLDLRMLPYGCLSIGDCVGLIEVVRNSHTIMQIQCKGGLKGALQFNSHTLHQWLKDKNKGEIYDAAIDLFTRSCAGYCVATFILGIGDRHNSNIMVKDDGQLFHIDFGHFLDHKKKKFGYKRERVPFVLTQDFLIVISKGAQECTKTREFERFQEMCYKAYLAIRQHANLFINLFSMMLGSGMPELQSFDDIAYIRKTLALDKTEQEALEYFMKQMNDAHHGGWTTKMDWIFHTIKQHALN
Sequence (P27986 whole entry partner, species assumed): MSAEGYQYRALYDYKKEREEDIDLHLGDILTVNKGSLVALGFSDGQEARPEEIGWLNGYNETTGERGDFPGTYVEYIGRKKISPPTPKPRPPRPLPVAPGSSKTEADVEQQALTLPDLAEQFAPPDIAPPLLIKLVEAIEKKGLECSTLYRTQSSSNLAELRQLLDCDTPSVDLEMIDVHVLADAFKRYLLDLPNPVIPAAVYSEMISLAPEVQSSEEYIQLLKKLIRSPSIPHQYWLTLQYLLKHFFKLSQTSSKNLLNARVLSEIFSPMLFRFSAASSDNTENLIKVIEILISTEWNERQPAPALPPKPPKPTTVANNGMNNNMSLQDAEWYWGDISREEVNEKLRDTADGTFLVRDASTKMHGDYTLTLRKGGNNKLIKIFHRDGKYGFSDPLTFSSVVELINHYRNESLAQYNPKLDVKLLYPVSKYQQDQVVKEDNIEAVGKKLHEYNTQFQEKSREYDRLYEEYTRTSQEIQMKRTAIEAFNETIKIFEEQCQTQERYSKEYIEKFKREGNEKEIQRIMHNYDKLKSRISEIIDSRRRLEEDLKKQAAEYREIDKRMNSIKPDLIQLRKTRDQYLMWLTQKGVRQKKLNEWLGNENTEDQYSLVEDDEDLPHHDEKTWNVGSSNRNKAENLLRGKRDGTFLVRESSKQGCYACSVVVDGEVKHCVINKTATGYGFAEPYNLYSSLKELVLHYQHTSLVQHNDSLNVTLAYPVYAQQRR
Test: PI3K-alpha Fluorescence Polarization Assay
Format: biochemical
pIC50: −log10 of the molar value.

molecular-string	pIC50
COc1ccc2c(c1)c(/C=C1\Oc3cc(OC(=O)N(C)C)cc(OC(=O)N(C)C)c3C1=O)c(C)n2CCN1CCN(C)CC1	< 5.00
COc1ccc2c(c1)c(/C=C1\Oc3cc(OC(=O)N(C)C)cc(O)c3C1=O)c(C)n2CCN1CCN(C)CC1	5.95
COc1ccc2c(c1)c(/C=C1\Oc3cc(OC(=O)N(C(C)C)C(C)C)cc(OC(=O)N(C(C)C)C(C)C)c3C1=O)cn2CCCN(C)C	< 5.00

(Q) Item under review: `COc1ccc2c(c1)c(/C=C1\Oc3cc(O)cc(OC(=O)N(C)C)c3C1=O)c(C)n2CCN1CCN(C)CC1` . Reported pIC50?
(A) 6.07

(Q) Given the molecule `COc1ccc2c(c1)c(/C=C1\Oc3cc(OC(=O)N(C)C)cc(OC(=O)N(C)C)c3C1=O)cn2CCCN(C)C` , what is its reported pIC50?
(A) < 5.00

(Q) Suppose we examine the molecule `COc1ccc2c(c1)c(/C=C1\Oc3cc(OC(=O)N(c4ccccc4)c4ccccc4)cc(OC(=O)N(c4ccccc4)c4ccccc4)c3C1=O)cn2CCCN(C)C` ; what pIC50 value has been reported?
(A) < 5.00

# credit: patent US20100061982A1
